target: Gamma-aminobutyric acid receptor subunit alpha-1 (Rattus norvegicus)
Sequence (P62813 whole entry): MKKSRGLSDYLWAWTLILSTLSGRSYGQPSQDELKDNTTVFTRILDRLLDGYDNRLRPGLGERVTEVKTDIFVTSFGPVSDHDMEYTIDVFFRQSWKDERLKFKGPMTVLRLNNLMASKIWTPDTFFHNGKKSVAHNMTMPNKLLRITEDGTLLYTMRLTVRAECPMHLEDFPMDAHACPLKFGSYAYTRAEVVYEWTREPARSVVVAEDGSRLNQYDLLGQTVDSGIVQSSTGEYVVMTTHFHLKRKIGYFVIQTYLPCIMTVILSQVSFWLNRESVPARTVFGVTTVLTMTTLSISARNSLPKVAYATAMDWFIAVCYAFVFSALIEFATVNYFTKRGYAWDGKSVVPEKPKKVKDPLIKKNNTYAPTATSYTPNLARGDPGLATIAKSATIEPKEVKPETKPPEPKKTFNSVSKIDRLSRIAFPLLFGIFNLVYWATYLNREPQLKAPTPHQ
pKi: −log10 of the molar value.
PROPERTY: pKi

So, O=C1CN=C(c2ccccc2Cl)c2cc([N+](=O)[O-])ccc2N1 ? Its pKi was < 5.00
